tested on: RAW-Dual (murine macrophage reporter line); assay: NF-kB reporter (SEAP) activity fold change vs agonist alone; higher = enhanced NF-kB activity; settings: modulator concentration 10 µM; agonist: MPLA […]
The label depends only on NF-kB reporter: yes (1) if it is at least 1, no (0) if it is smaller.

compound | group
c1ccc(CSc2nnc(-c3ccncc3)o2)cc1 | yes (1)
CCCCCCC=CCCCCCCCc1cccc(O)c1C(=O)O | no (0)
CC(=O)Oc1c(C)cc2sc3ccccc3c(=O)c2c1C | no (0)
O=C(NCCNC(=O)c1ccccc1Cl)c1ccc(NC(=O)C2CC2)cc1 | yes (1)
CCc1ccc2ncc(C#N)c(Nc3cc(OC)c(OC)c(OC)c3)c2c1.Cl | no (0)

Below: the item to evaluate.
Determine whether measured NF-kB reporter meets or exceeds 1 for CC1CCc2nc(NC(=O)C3CCCN3S(C)(=O)=O)sc2C1 (stereo unspecified) yes (1)

---

tested on: RAW-Dual (murine macrophage reporter line); assay: NF-kB reporter (SEAP) activity fold change vs agonist alone; higher = enhanced NF-kB activity; settings: modulator concentration 10 µM; agonist: CpG ODN 1826 0.5 ug/mL
The label depends only on NF-kB reporter: true (1) if it is at least 0.9, false (0) if it is smaller.

Determine whether measured NF-kB reporter meets or exceeds 0.9 for `CC(C)(C)c1nc(-c2cccc(NS(=O)(=O)c3c(F)cccc3F)c2F)c(-c2ccnc(N)n2)s1` true (1)

Can you check `Cl.O=C1Cc2cc(CCN3CCN(c4nsc5ccccc45)CC3)c(Cl)cc2N1` next? false (0)

Can you check `CCN(CC)c1ccc(C=NNC(=O)c2ccccc2C)c(O)c1` next? true (1)

Can you check `C=CCNc1oc(Cc2cccc3ccccc23)nc1C#N` next? false (0)

Can you check `COc1cc2c(cc1Cc1cccc(Cl)c1F)c(=O)c(C(=O)O)cn2[C@H](CO)C(C)C` next? true (1)

Can you check `Cc1cccc(Nc2ccccc2C(=O)O)c1C` next? false (0)

Can you check `COc1cccc(-c2cc(C(=O)N3CCC(Oc4cc(C)n(C)c(=O)c4)CC3)n(C)n2)c1` next? true (1)

Can you check `O=C(O)CCCN1CCC(O[C@@H](c2ccc(Cl)cc2)c2ccccn2)CC1.O=S(=O)(O)c1ccccc1` next? true (1)

Can you check `Cc1nc(SCC(=O)N2CCCCCC2)[nH]c(=O)c1C` next? true (1)

Can you check `Cc1[nH]c(=O)c(C#N)cc1-c1ccncc1` next? true (1)

Can you check `O=C(Nc1nccs1)c1ccc2c(c1)C(=O)N(C1CCCCC1)C2=O` next? true (1)

Can you check Cc1nc2n(c(=O)c1CCN1CCC(c3noc4cc(F)ccc34)CC1)CCCC2O (stereo not drawn) next? true (1)

Can you check `Cc1cccc(N(CC(=O)Nc2ccc3c(c2)OCO3)S(C)(=O)=O)c1` next? false (0)

Can you check `CC(=O)c1ccc2c3c([nH]c2c1)CCCC3` next? false (0)

Can you check `COc1ccc(CNC(=O)c2cnc3n(c2=O)CCS3)cc1` next? true (1)

Can you check `CCCc1nc2ccccc2n1C(=O)C=CC(=O)O` next? false (0)

Can you check `Cc1ccc2nc(C)c(NC(=O)c3ccc4ccccc4n3)c(=O)n2c1` next? false (0)

Can you check `COc1cc(Nc2ncc(F)c(Nc3ccc4c(n3)N(COP(=O)(O)O)C(=O)C(C)(C)O4)n2)cc(OC)c1OC` next? false (0)

Can you check `Cc1oncc1CNC(=O)c1ccc(C(C)(C)C)cc1` next? true (1)
